Test system: Human immunodeficiency virus 1
assaySummary: Antiviral activity against Human immunodeficiency virus 1 NL4-3 infected in human MT4 cells measured on day 3 post infection by Nano-Glo luciferase reporter gene assay
Assay type: functional, organism-based
measurementSetup: Human immunodeficiency virus 1, NL4-3, MT4, 72 h
measurementLabel: pEC50
Keep in mind that pEC50 stands for -log10 of concentration in molar terms.

>>> print(df.to_string())
                                 chemsmiles  endpointvalue
0  CC1=C[C@]23C(=O)[C@@H](C=C(CO)[C@@H](O)[C@]2(O)[C@H]1OC(=O)c1ccc2ccccc2c1)[C@H]1[C@@H](C[C@H]3C)C1(C)C           8.89

// below: pEC50 requested for another compound
Entry CCCCCCCCCCCC(=O)O[C@@]12C[C@@H](C)[C@]34C=C(C)[C@H](O)[C@@]3(O)[C@H](O)C(CO)=C[C@H](C4=O)[C@@H]1C2(C)C : reported pEC50 = ?
7.47

###

Test system: MT4
assaySummary: Cytotoxicity against human MT4 cells after 3 days by CytoTox-Glo assay
Type: cell-based
measurementSetup: mt4, 72 h
Each record here notes measured CC50.

                                   compound  measurementtarget  endpointvalue
0  CC1=C[C@@H]2C(=O)[C@]3(C=C(C)[C@H](OC(=O)c4ccc5ccccc5c4)[C@@]3(O)[C@@H]1O)[C@H](C)C[C@@H]1[C@H]2C1(C)C                MT4       > 8.2 µM
1  Cc1cn([C@H]2C[C@H](N=[N+]=[N-])[C@@H](CO)O2)c(=O)[nH]c1=O                MT4       > 0.4 µM

// below: CC50 requested for another compound
Entry C/C=C(/C)C(=O)O[C@H]1C(C)=C[C@]23C(=O)[C@@H](C=C(CO)[C@@H](O)[C@]12O)[C@H]1[C@@H](C[C@H]3C)C1(C)C [INGENOL MEBUTATE] : reported CC50 = ?
> 9.3 µM

###

assaySummary: Selectivity index, ratio of CC50 for human MT4 cells to EC50 for Human immunodeficiency virus 1 NL4-3 infected in human MT4 cells
Type: toxicity, cell-based
measurementSetup: read-out: Ratio CC50/EC50
measurementLabel: selectivity ratio

molecule	selectivity ratio
CC1=C[C@@H]2C(=O)[C@]3(C=C(C)[C@H](O)[C@@]3(O)[C@@H]1OC(=O)c1ccc3ccccc3c1)[C@H](C)C[C@@H]1[C@H]2C1(C)C	> 179
CCCCCCCCCCCC(=O)O[C@@]12C[C@@H](C)[C@]34C=C(C)[C@H](OC(=O)C(C)C(C)C)[C@@]3(O)[C@H](O)C(CO)=C[C@H](C4=O)[C@@H]1C2(C)C (stereo partly drawn)	> 7500

// below: selectivity ratio requested for another molecule
Entry C/C=C/C(=O)O[C@H]1C(C)=C[C@]23C(=O)[C@@H](C=C(C)[C@@H](O)[C@]12O)[C@H]1[C@@H](C[C@H]3C)C1(C)C : reported selectivity ratio = ?
> 17

###

Test system: MT4
assaySummary: Cytotoxicity against human MT4 cells after 3 days by CytoTox-Glo assay
Format: cell-based
measurementSetup: mt4, 72 h
measurementLabel: CC50

Some solved cases for reference:
compound	CC50
COc1ccc(C(=O)O[C@H]2C(C)=C[C@]34C(=O)[C@@H](C=C(C)[C@@H](O)[C@]23O)[C@H]2[C@@H](C[C@H]4C)C2(C)C)cc1	> 8.6 µM
CC1=C[C@@H]2C(=O)[C@]3(C=C(C)[C@H](O)[C@@]3(O)[C@@H]1OC(=O)c1ccccc1)[C@H](C)C[C@@H]1[C@H]2C1(C)C	> 9.2 µM
C/C=C(/C)C(=O)O[C@H]1C(C)=C[C@]23C(=O)[C@@H](C=C(C)[C@@H](O)[C@]12O)[C@H]1[C@@H](C[C@H]3C)C1(C)C	> 9.7 µM
CC1=C[C@]23C(=O)[C@@H](C=C(CO)[C@@H](O)[C@]2(O)[C@H]1O)[C@H]1[C@@H](C[C@H]3C)C1(C)C [INGENOL]	> 11.5 µM
COc1ccc(C(=O)O[C@@H]2C(C)=C[C@@H]3C(=O)[C@]4(C=C(C)[C@H](O)[C@@]24O)[C@H](C)C[C@@H]2[C@H]3C2(C)C)cc1	> 8.6 µM

// below: CC50 requested for another compound
Tell me reported CC50 for C/C=C/C(=O)O[C@@H]1C(C)=C[C@@H]2C(=O)[C@]3(C=C(C)[C@H](O)[C@@]13O)[C@H](C)C[C@@H]1[C@H]2C1(C)C , tested with MT4.
> 10 µM

###

assaySummary: Selectivity index, ratio of CC50 for human MT4 cells to EC50 for Human immunodeficiency virus 1 NL4-3 infected in human MT4 cells
Format: toxicity, cell-based
measurementSetup: read-out: Ratio CC50/EC50
measurementLabel: selectivity ratio

Some solved cases for reference:
                                 chemsmiles  endpointvalue
0  COc1ccc(C(=O)O[C@H]2C(C)=C[C@]34C(=O)[C@@H](C=C(C)[C@@H](O)[C@]23O)[C@H]2[C@@H](C[C@H]4C)C2(C)C)cc1           > 64
1  C/C=C(\C)C(=O)O[C@H]1C(C)=C[C@]23C(=O)[C@@H](C=C(C)[C@@H](O)[C@]12O)[C@H]1[C@@H](C[C@H]3C)C1(C)C           > 46

// below: selectivity ratio requested for another molecule
Entry CC(=O)O[C@H]1C(C)=C[C@]23C(=O)[C@@H](C=C(C)[C@@H](OC(=O)c4ccccc4)[C@]12O)[C@H]1[C@@H](C[C@H]3C)C1(C)C : reported selectivity ratio = ?
> 23

###

Test system: Human immunodeficiency virus 1
assaySummary: Antiviral activity against Human immunodeficiency virus 1 NL4-3 infected in human MT4 cells measured on day 3 post infection by Nano-Glo luciferase reporter gene assay
Type: functional, organism-based
measurementSetup: Human immunodeficiency virus 1, NL4-3, MT4, 72 h
Each record here notes measured pEC50.
Keep in mind that pEC50 stands for -log10 of concentration in molar terms.

Some solved cases for reference:
In [3]: df
Out[3]:
                                   compound               measurementtarget  measurementlabel  endpointvalue
0  CC(=O)O[C@H]1C(C)=C[C@]23C(=O)[C@@H](C=C(C)[C@@H](OC(=O)c4ccccc4)[C@]12O)[C@H]1[C@@H](C[C@H]3C)C1(C)C  Human immunodeficiency virus 1             pEC50           6.44
1  C/C=C(\C)C(=O)O[C@H]1C(C)=C[C@]23C(=O)[C@@H](C=C(C)[C@@H](O)[C@]12O)[C@H]1[C@@H](C[C@H]3C)C1(C)C  Human immunodeficiency virus 1             pEC50           6.68
2  CC1=C[C@@H]2C(=O)[C@]3(C=C(C)[C@H](O)[C@@]3(O)[C@@H]1OC(=O)c1ccccc1)[C@H](C)C[C@@H]1[C@H]2C1(C)C  Human immunodeficiency virus 1             pEC50           7.37
3  C/C=C/C(=O)O[C@H]1C(C)=C[C@]23C(=O)[C@@H](C=C(C)[C@@H](O)[C@]12O)[C@H]1[C@@H](C[C@H]3C)C1(C)C  Human immunodeficiency virus 1             pEC50           6.22
4  COc1ccc(C(=O)O[C@@H]2C(C)=C[C@@H]3C(=O)[C@]4(C=C(C)[C@H](O)[C@@]24O)[C@H](C)C[C@@H]2[C@H]3C2(C)C)cc1  Human immunodeficiency virus 1             pEC50           6.36
5  CCCCCCCC(=O)O[C@H]1C(C)=C[C@]23C(=O)[C@@H](C=C(C)[C@@H](O)[C@]12O)[C@H]1[C@@H](C[C@H]3C)C1(C)C  Human immunodeficiency virus 1             pEC50           6.84

Tell me reported pEC50 for COc1ccc(C(=O)O[C@H]2C(C)=C[C@]34C(=O)[C@@H](C=C(C)[C@@H](O)[C@]23O)[C@H]2[C@@H](C[C@H]4C)C2(C)C)cc1 , tested with Human immunodeficiency virus 1.
6.87

Tell me reported pEC50 for C/C=C/C(=O)O[C@@H]1C(C)=C[C@@H]2C(=O)[C@]3(C=C(C)[C@H](O)[C@@]13O)[C@H](C)C[C@@H]1[C@H]2C1(C)C , tested with Human immunodeficiency virus 1.
6.20

Tell me reported pEC50 for C/C=C(/C)C(=O)O[C@H]1C(C)=C[C@]23C(=O)[C@@H](C=C(CO)[C@@H](O)[C@]12O)[C@H]1[C@@H](C[C@H]3C)C1(C)C [INGENOL MEBUTATE] , tested with Human immunodeficiency virus 1.
8.35

Tell me reported pEC50 for CC1=C[C@@H]2C(=O)[C@]3(C=C(C)[C@H](O)[C@@]3(O)[C@@H]1OC(=O)/C=C/c1ccccc1)[C@H](C)C[C@@H]1[C@H]2C1(C)C , tested with Human immunodeficiency virus 1.
6.40

Tell me reported pEC50 for C/C=C(/C)C(=O)O[C@H]1C(C)=C[C@]23C(=O)[C@@H](C=C(C)[C@@H](O)[C@]12O)[C@H]1[C@@H](C[C@H]3C)C1(C)C , tested with Human immunodeficiency virus 1.
6.37

Tell me reported pEC50 for CC1=C[C@@H]2C(=O)[C@]3(C=C(C)[C@H](OC(=O)c4ccc5ccccc5c4)[C@@]3(O)[C@@H]1O)[C@H](C)C[C@@H]1[C@H]2C1(C)C , tested with Human immunodeficiency virus 1.
7.82
